assay: Pharmacokinetic testing in mice; assay type: in vivo, male CD-1 mice; conditions: mouse, IV 3 mg/kg; read-out: Starting concentration C0
Would you kindly list C0 for each of these compounds?
Answers are plain numbers, in µM.

State recorded C0 for all listed compounds.
1. CNC(=O)c1nnc(NC(=O)C2CC2)cc1Nc1cccc(-c2ncc(S(=N)(=O)C(C)C)cn2)c1OC (single isomer, unassigned) [WX-011A]
2. CNC(=O)c1cnc(NC(=O)C2CC2)cc1Nc1cccc(-c2ccc(S(=O)(=O)C(C)C)cn2)c1OC.Cl [Hydrochloride of WX-020]

(A)
1. 9.92
2. 8.04

----------
experiment: Pharmacokinetic testing in mice; assay type: in vivo, male CD-1 mice; conditions: male, CD-1, plasma; mouse, IV 3 mg/kg; read-out: Area under the curve AUC0-last
Would you mind telling me the reported AUC(0-t) of each entry?
Record the result as a number with its unit.

CNC(=O)c1cnc(NC(=O)C2CC2)cc1Nc1cccc(-c2ncc(S(=O)(=O)C(C)C)cn2)c1OC ... 21 µM·h

// moving on: another record for AUC(0-t)
Notebook: CNC(=O)c1nnc(NC(=O)C2CC2)cc1Nc1cccc(-c2ccc(P(=O)(C3CC3)C3CC3)cn2)c1OC , AUC(0-t) read as 11.9 µM·h

----------
Hi there, I'd appreciate the recorded log10 GI50 for every entry that follows.
biological target: Ba/F3-FL-TYK2-E957D cells (Homo sapiens, UniProt P29597, E957D, cells depend on it); assay: Proliferation of Ba/F3-FL-TYK2-E957D cells (CellTiter-Glo); type: cell-based, mouse; settings: 72 hours, read-out: Half maximal inhibitory concentration IC50 for cells Ba/F3-FL-TYK2-E957D
Sequence (P29597 whole entry E957D): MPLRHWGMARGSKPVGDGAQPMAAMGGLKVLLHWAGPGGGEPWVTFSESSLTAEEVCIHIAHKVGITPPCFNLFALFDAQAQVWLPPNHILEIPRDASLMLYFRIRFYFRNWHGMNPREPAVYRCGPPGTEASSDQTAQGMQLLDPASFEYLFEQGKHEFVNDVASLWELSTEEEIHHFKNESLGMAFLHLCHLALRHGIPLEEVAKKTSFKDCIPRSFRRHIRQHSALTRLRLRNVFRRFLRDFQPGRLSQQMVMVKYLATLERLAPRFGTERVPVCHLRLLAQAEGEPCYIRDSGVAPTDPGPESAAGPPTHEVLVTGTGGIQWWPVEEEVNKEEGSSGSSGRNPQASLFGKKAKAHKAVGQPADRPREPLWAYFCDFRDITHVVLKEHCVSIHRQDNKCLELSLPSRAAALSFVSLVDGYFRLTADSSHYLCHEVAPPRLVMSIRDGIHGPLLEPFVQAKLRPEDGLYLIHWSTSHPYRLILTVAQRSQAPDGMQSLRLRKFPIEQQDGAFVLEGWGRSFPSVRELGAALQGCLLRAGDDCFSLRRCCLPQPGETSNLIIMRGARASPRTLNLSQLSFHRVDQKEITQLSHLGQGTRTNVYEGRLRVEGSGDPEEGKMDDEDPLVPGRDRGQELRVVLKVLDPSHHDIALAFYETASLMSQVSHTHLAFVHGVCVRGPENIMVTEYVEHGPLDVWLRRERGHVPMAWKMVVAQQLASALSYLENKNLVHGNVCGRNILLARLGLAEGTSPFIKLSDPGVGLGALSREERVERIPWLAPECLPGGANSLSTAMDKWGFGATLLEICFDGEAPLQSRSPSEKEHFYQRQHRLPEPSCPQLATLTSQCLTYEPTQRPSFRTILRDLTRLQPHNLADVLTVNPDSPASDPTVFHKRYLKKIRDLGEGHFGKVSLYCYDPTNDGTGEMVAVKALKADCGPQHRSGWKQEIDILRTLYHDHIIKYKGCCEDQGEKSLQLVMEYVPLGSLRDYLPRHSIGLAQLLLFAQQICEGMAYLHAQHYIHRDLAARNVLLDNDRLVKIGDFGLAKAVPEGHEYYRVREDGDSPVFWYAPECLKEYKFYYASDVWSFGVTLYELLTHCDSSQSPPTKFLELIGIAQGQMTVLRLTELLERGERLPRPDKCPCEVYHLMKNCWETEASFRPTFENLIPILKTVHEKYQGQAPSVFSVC
Where a name gives a salt, the structure may show the parent alone.
Use the decimal logarithm of GI50 (nM).

Here is how some compounds turned out for log10 GI50.
CNC(=O)c1nnc(NC(=O)C2CC2)cc1Nc1cccc(-c2ncc(S(=N)(=O)C(C)C)cn2)c1OC (single isomer, unassigned) [WX-011A] ... 0.72
CNC(=O)c1cnc(NC(=O)C2CC2)cc1Nc1cc(F)cc(-c2ncc(S(=O)(=O)C(C)C)cn2)c1OC ... 0.30

For the 4 compounds below, give their log10 GI50 values.
1. [2H]C([2H])([2H])NC(=O)c1cnc(NC(=O)C2CC2)cc1Nc1cccc(-c2ncc(S(=O)(=O)N3CCCC3)cn2)c1OC [Hydrochloride of WX-006]
2. COc1c(Nc2cc(NC(=O)C3CC3)nnc2C(N)=O)cccc1-c1ccc(P(=O)(C2CC2)C2CC2)cn1 [Trifluoroacetate of WX-035]
3. CNC(=O)c1cnc(NC(=O)C2CC2)cc1Nc1cc(F)cc(-c2ccc(S(C)(=O)=O)cc2)c1OC [Trifluoroacetate of WX-026]
4. CNC(=O)c1cnc(NC(=O)C2CC2)cc1Nc1cccc(-c2ccc(S(=O)(=O)C(C)C)cn2)c1OC.Cl [Hydrochloride of WX-020]

(A)
[1.03, 0.83, 1.27, 0.18]

----------
Assay: Pharmacokinetic testing in mice
Type: in vivo, male CD-1 mice
Conditions: male, CD-1, plasma; mouse, PO 10 mg/kg; read-out: Bioavailability F %
Procedure: The objective was to study the pharmacokinetic behavior of the compound of the present disclosure in mice and evaluate the pharmacokinetic characteristics, using male CD-1 mice aged 7 to 9 weeks as test animals. The drug concentrations in plasma at different time points after a single intravenous injection (IV) and oral administration (PO) of the compound were determined using LC/MS/MS. […]
parameter measured: bioavailability
Answer with the figure and its unit, nothing else.

// worked examples, bioavailability included
CNC(=O)c1nnc(NC(=O)C2CC2)cc1Nc1cccc(-c2ncc(S(=N)(=O)C(C)C)cn2)c1OC (stereo not shown) ... 52%
CNC(=O)c1nnc(NC(=O)C2CC2)cc1Nc1cccc(-c2ccc(P(=O)(C3CC3)C3CC3)cn2)c1OC ... 52%
CNC(=O)c1nnc(NC(=O)C2CC2)cc1Nc1cccc(-c2ccc(S(=N)(=O)C(C)C)cn2)c1OC (stereo not shown) ... 68%

get_value(item= CNC(=O)c1cnc(NC(=O)C2CC2)cc1Nc1cccc(-c2ncc(S(=O)(=O)C(C)C)cn2)c1OC , readout=bioavailability) returns 87%
